TESTED_TARGET: T1, human GITR (human, UniProt Q9Y5U5 26-241)
T1 construct: also called glucocorticoid-induced TNFR family-related receptor; TNFRSF18
T1 sequence: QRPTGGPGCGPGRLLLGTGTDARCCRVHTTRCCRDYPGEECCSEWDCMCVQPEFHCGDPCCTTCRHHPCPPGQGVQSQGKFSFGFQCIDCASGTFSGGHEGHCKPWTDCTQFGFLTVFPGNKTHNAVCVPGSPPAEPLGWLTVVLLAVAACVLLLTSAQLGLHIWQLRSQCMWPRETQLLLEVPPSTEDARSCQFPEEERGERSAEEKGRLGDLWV
ASSAY_REMARKS: flow cytometry on activated human T cells, anti-FLAG detection
pEC50: −log10 of the molar value.
MEASUREMENT_NAME: pEC50

| BINDER | OBSERVED |
| --- | --- |
| A0231034A08 (VHH, Monovalent Nanobody expressed in E. coli with a triple Flag, HIS6 tag; also called A0231PMP034A08; PA0231PMP034A08.1; not shown: C-terminal triple FLAG and HIS6 tag) VHH: EVQLVESGGDLVQPGGSLRLSCAASGSVFSINDMGWFRQAPGKQRELVADIISRGVTNYADSVKGRFTISGDPAKNTVYLQMNSLKPEDTAVYYCNAHISTGWGRPHNNYWGQGTQVTVSS | 9.27 |
| A0231033B02 (VHH, Monovalent Nanobody expressed in E. coli with a triple Flag, HIS6 tag; also called A0231PMP033B02; PA0231PMP033B02.1; not shown: C-terminal triple FLAG and HIS6 tag) VHH: EVQLVESGGGLVQPGGSLRLSCAASGTIFSISTMGWYRQAPGKQREVVAVTSGFSTNYSSAVKGRFTLSRDPAKNTVFLQMNSLQPEDTATYYCNAYLSLAWRDPDRDYWGQGTQVTVSS | 7.68 |
| A0231003D11 (VHH, Monovalent Nanobody expressed in E. coli with a triple Flag, HIS6 tag; also called A0231PMP003D11; PA0231PMP003D11.1; not shown: C-terminal triple FLAG and HIS6 tag) VHH: EVQLVESGGGLVQAGESLRLSCAASGSIFSIDAMGWYRQAPGKQRELVAEISDHTTYGDSVKGRFTISRGNAENTVALQMNSLKPEDTGVYYCNVHHQRGWGTSITVTWGQGTQVTVSS | 8.89 |
| A0231005A03 (VHH, Monovalent Nanobody expressed in E. coli with a triple Flag, HIS6 tag; also called A0231PMP005A03; PA0231PMP005A03.1; not shown: C-terminal triple FLAG and HIS6 tag) VHH: EVQLVESGGGLVQPGGSLRLSCAASETIFSIDSMAWYRQAPGKQRELVAAITGGGSPNYADSVKGRFTISSDVAKRTVYLQMNSLKPEDTAVYYCNAEGQAGWGTALMDYWGKGTLVTVSS | 9.10 |
| A0231052A08 (VHH, Monovalent Nanobody expressed in E. coli with a triple Flag, HIS6 tag; also called A0231PMP052A08; PA0231PMP052A08.1; not shown: C-terminal triple FLAG and HIS6 tag) VHH: EVQLVESGGGLVQAGGSLRLSCVASGSISSITAMGWHRQAPGAQREGVAVISRSGATMLVDSVKGRFTIVQDNAKNTVYLQMNSLKVEDTAVYGCSAITQGRTYWGQGTLVTVSS | 7.64 |
| A0231004B01 (VHH, Monovalent Nanobody expressed in E. coli with a triple Flag, HIS6 tag; also called A0231PMP004B01; PA0231PMP004B01.1; not shown: C-terminal triple FLAG and HIS6 tag) VHH: EVQLVESGGGLVQPGGSLRLSCAASGSIFSIDSMGWYRQAPGKQRELVAAITSSTNYADSVKGRFTISRDNAKNTVYLQMNSLKPEDTAVYYCNLEGQAGWGTALINYWGKGTLVTVSS | 9.21 |
